src = PubChem BioAssay (NCI)

Reported growth values are given for each entry in this list.
Tested on: HOP-92 NSCLC
Assay: NCI-60 one-dose screen, 48 h (100 = growth as untreated, 0 = no growth, -100 = all killed)
Details: 10 µM unless noted
This is part of a sample that, as a whole, favours compounds with a hit. Of some 83,000 tested, about 20% had one in any assay.
Field: numeric (%). Do not append units.

// known answers, use as guide
1) COC(=O)c1c2c(c[n+]([O-])c1C)C(=O)C=CC2=O    70.8
2) Cc1ccc(Cl)c(NS(=O)(=O)c2ccc(-c3cnc(C4CC4)o3)cc2)c1    73.9
3) COc1ccc2occ(C3=C(c4c[nH]c5ccccc45)C(=O)N(O)C3=O)c2c1    87.8
4) O=C(CC(SCc1ccccc1)c1ccccc1)c1ccccc1 (centres undefined)    80.1
5) COc1cc(OC)cc(C2CC(=O)Nc3c2c(C)nn3-c2nc3ccccc3[nH]2)c1 (centres undefined)    0.274

q: // lookup growth for `NC(=N\N=C/c1ccccc1[N+](=O)[O-])/C(N)=N\N=C/c1ccccc1[N+](=O)[O-]`
a: 89

q: Could you do the same for CC1OC(O[C@H]2/C=C/C=C/C=C/C=C/C=C/C=C/C=C/[C@H](C)[C@@H](O)[C@@H](C)[C@H](C)OC(=O)CC(O)CC(O)CCC(O)C(O)CC(O)C[C@]3(O)C[C@H](O)C(C(=O)O)C(C2)O3)C(O)[C@H](N)C1O (some centres undefined) , please?
a: 18.6

q: Could you do the same for `C=CCn1c(C)nc2cc(Nc3nc(Cl)nc4ccccc34)ccc21` , please?
a: 91.9

q: Could you do the same for `CN1CCN(C(=O)c2c3c(n4ccccc24)C(=O)c2ncccc2C3=O)CC1` , please?
a: 85.4

----------
System: HS 578T breast
Assay: NCI-60 one-dose screen, 48 h
Conditions: 10 µM unless noted
This is part of a sample that, as a whole, favours compounds with a hit. Of some 83,000 tested, about 20% had one in any assay. Active and inactive are the calls of the source. The calls were made as follows: active = growth percent below 10; inactive = the rest.
Give your call using only these classes: T for active, F for inactive

Example results:
1. CC1=C([Se]CC(OC(=O)[C@@H](CO)NC(=O)OC(C)(C)C)C(=O)NC(C)(C)C)C(=O)c2ccccc2C1=O (stereo not given in full)    T
2. S=C(c1ccc2c(c1)OCO2)N1CCN(c2ccccc2Cl)CC1    F
3. CCCCCCCCCOc1c(OC)cc(C2CC(=O)Nc3c2c(C)nn3-c2nc3ccccc3[nH]2)cc1OC (stereo not given)    T
4. N=C1C(c2nc(-c3ccc(Br)cc3)cs2)=C(O)CN1CC1CCCO1 (stereo not given)    F
5. O=C(Nc1cccc(C(F)(F)F)c1)Nc1cccc(C(F)(F)F)c1    T
6. O=C(CC(SCc1ccccc1)c1ccccc1)c1ccccc1 (stereo not given)    F
7. O=C1/C(=C/c2ccc(F)cc2)C=C(c2ccccc2)N1CCc1ccccc1    F
8. CN(C)c1ccc(-c2cc(-c3ccc(Nc4nc(Nc5ccc(Cl)cc5)nc(Nc5ccc(Cl)cc5)n4)cc3)no2)cc1    F
9. Cc1ccc(-c2cc(-c3cccnc3)[nH]c(=O)c2C#N)cc1    F

q: Outcome? `COC(=O)c1ccc(CSc2nnc(-c3c(C)nc4ccc(C)cn34)o2)cc1`
a: F

----------
Tested on: BT-549 breast
Assay: NCI-60 one-dose screen, 48 h (100 = growth as untreated, 0 = no growth, -100 = all killed)
Details: 10 µM unless noted
This is part of a sample that, as a whole, favours compounds with a hit. Of some 83,000 tested, about 20% had one in any assay. The source made the active and inactive calls. Rule for the calls: active = growth percent below 10; inactive = the rest.
Reported growth values are given for each entry in this list.

1) O=C(CC(SCc1ccccc1)c1ccccc1)c1ccccc1 (centres undefined)    94% (inactive)

q: // lookup growth for CCCCOc1nc2ccccc2cc1C1CNC(=O)c2ccccc2N1 (centres undefined)
a: 41% (inactive)

q: Could you do the same for `COc1ccc(-c2nc(SCCC(C)C)nc(N/N=C\c3ccccc3O)c2C#N)cc1` , please?
a: 100% (inactive)

q: Could you do the same for `CCc1ccccc1NC(=O)/C(C#N)=C/c1ccc(OC)cc1` , please?
a: 112% (inactive)

----------
Test system: A498 renal
Experiment: NCI-60 one-dose screen, 48 h
Conditions: 10 µM unless noted
Compounds without any hit were thinned out: in the full panel of roughly 83,000, 20% have a hit. Calls of active or inactive are those of the source. How the source made its calls: active means growth percent below 10; inactive means the rest.
Give your call using only these classes: active, inactive

1) COC(=O)[C@]12CC[C@@H](C)[C@H](C)[C@@H]1C1=CC[C@@H]3[C@@]4(C)C(C=O)=C[C@@](C)(COC(C)=O)[C@@H]4[C@H](O)C[C@@]3(C)[C@]1(C)CC2    inactive
2) O=c1[nH][n+](-c2ccc(Cl)cc2)no1    inactive
3) COc1ccc(-c2nc(SCCC(C)C)nc(N/N=C\c3ccccc3O)c2C#N)cc1    inactive
4) O=C(/C=C/c1ccco1)c1ccc(Nc2nc(Nc3ccc(F)cc3)nc(Nc3ccc(Cl)cc3)n2)cc1    inactive
5) CCc1ccccc1-n1c(-c2ccc(Cl)cc2)cc(-c2ccc(OC)cc2)c(C#N)c1=O    inactive

q: Outcome? `N=C1C(c2nc(-c3ccc(Br)cc3)cs2)=C(O)CN1Cc1cccnc1`
a: inactive

q: Could you do the same for `Cc1ccc(-c2cc(-c3cccnc3)[nH]c(=O)c2C#N)cc1` , please?
a: inactive

q: Could you do the same for `CCN(CC)c1ccc2nc3c4ccccc4c(=NC(=O)c4ccccc4-c4c5ccc(N(CC)CC)cc5[o+]c5cc(N(CC)CC)ccc45)cc-3oc2c1` , please?
a: inactive

q: Could you do the same for `S=C(Cc1ccc2c(c1)CCCC2)N1CCOCC1` , please?
a: inactive

q: Could you do the same for `N=c1sc(Cc2ccc(Cl)cc2)cn1CC(=O)c1ccc(F)cc1` , please?
a: inactive

----------
System: CCRF-CEM leukemia
Experiment: NCI-60 one-dose screen, 48 h (100 = growth as untreated, 0 = no growth, -100 = all killed)
Settings: 10 µM unless noted
About 83,000 compounds went through this panel and 20% of them were active in at least one assay; those are over-represented in the sample as a whole.
MEASUREMENT KIND: growth (%)
Field: numeric (%). Do not append units.

// known answers, use as guide
1. COc1cccc(/C=C/C(=O)c2c(C)nc3ccccc3c2/C=C/c2ccc(C)cc2)c1OC    16.6
2. COc1ccc(NC(=O)CSc2nc(C)c(C(C)=O)n2-c2ccc([N+](=O)[O-])cc2)cc1    111
3. NS(=O)(=O)c1ccc(-n2nc(C(=O)N/N=C\c3ccc(F)cc3)cc2-c2ccc(Cl)cc2)cc1    103
4. COc1ccc(-c2nc3sccn3c2-c2cc(-c3cc(OC)c(OC)c(OC)c3)on2)cc1    34.6
5. COc1cccc(-c2nn(-c3ccccc3)cc2-c2ccnc(NCCCNC(=O)Nc3ccc(Cl)c(Cl)c3)c2)c1    1.35
6. COC1=CC(=O)C[C@@H](C)[C@]12Oc1c(Cl)c(OC)cc(OC)c1C2=O    93.9

q: // lookup growth for `COC(=O)[C@]12CC[C@@H](C)[C@H](C)[C@@H]1C1=CC[C@@H]3[C@@]4(C)C(C=O)=C[C@@](C)(COC(=O)c5ccco5)C4=CC[C@@]3(C)[C@]1(C)CC2`
a: 4.27

q: Could you do the same for `CCN(CC)c1ccc2nc3c4ccccc4c(=NC(=O)c4ccccc4-c4c5ccc(N(CC)CC)cc5[o+]c5cc(N(CC)CC)ccc45)cc-3oc2c1` , please?
a: 24.4

----------
System: NCI/ADR-RES ovarian
Assay: NCI-60 one-dose screen, 48 h (100 = growth as untreated, 0 = no growth, -100 = all killed)
Details: 10 µM unless noted
About 83,000 compounds went through this panel and 20% of them were active in at least one assay; those are over-represented in the sample as a whole.
Reported growth values are given for each entry in this list.
Field: numeric (%). Do not append units.

// known answers, use as guide
1) O=C(NCCc1ccc(O)c(O)c1)C12CC3CC(CC(C3)C1)C2    61.1
2) Cn1c2c(c3ccc(Cl)c(Cl)c31)C(C#N)C1(CCNCC1)NC2=O (centres undefined)    68.5
3) CN(C)CC1=NC2SC=C(c3ccccc3)C2C(=O)N1CC#N (centres undefined)    98.1

q: Which growth is reported with NCI/ADR-RES ovarian for this entry: `COc1ccc(C(=NN=C(N)N)c2ccc(OC)cc2)cc1` ?
a: 83.5

q: Could you do the same for `CNC(=O)c1cc(Oc2cccc3nc(Nc4ccc(F)c(Cl)c4)ccc23)ccn1` , please?
a: 57.4

q: Could you do the same for Cc1ccc(NS(=O)(=O)c2ccc3c(c2)C(=O)CC(c2ccc(C(=O)C(C)C)cc2)N3)cc1C (centres undefined) , please?
a: 56.3

q: Could you do the same for `NC(=O)c1ccc[n+]([C@@H]2O[C@H](COP(=O)([O-])OP(=O)(O)OC[C@H]3O[C@@H](n4cnc5c(N)ncnc54)[C@H](O)[C@@H]3O)[C@@H](O)[C@H]2O)c1` , please?
a: 99.2

q: Could you do the same for `C=C(C)[C@@H]1CC[C@]2(C)[C@H](CC=C3[C@@H]4CC(C)(C)CC[C@]4(C(N)=O)CC[C@]32C)[C@@]1(C)CCC#N` , please?
a: 35

q: Could you do the same for `O=c1cc(-c2ccc(Cl)cc2)[nH]c2ccccc12` , please?
a: 62.2

q: Could you do the same for COc1ccc(C2=NN(C(=O)c3cc(OC)c(OC)c(OC)c3)C(c3ccc(Cl)cc3)C2)cc1OC (centres undefined) , please?
a: -36.3

q: Could you do the same for `N#C/C(=C\c1ccc(-c2ccccc2F)o1)c1nc(-c2ccco2)cs1` , please?
a: 106

q: Could you do the same for CC(C)C(NC(=O)C1(NC(=O)OCc2ccccc2)CCCC1)C(=O)O (centres undefined) , please?
a: 104

q: Could you do the same for CC1(C)CC(=O)CC2(C1)N=C(N)Nc1nc3ccccc3n12 (centres undefined) , please?
a: 106

q: Could you do the same for `Cn1c(=O)c2[nH]c(NN)nc2n(C)c1=O` , please?
a: 113

q: Could you do the same for `COc1ccc(N=C(c2ccccc2)C2C(=O)c3ccccc3C2=O)cc1` , please?
a: 91.9

q: Could you do the same for `Cc1ccc(-c2c(-c3ccccc3)c(=O)oc3ccc(C)cc23)cc1` , please?
a: 93.2

q: Could you do the same for `c1ccc(Nc2nc(-c3ccccn3)cs2)nc1` , please?
a: -0.82

q: Could you do the same for `O=S(=O)(Nc1cccc(Cl)c1)c1ccc(-c2cnc(C3CC3)o2)cc1` , please?
a: 18.9

q: Could you do the same for `Clc1ccc(-c2c3ccc(=[N+]4CCCCC4)cc-3oc3cc(N4CCCCC4)ccc23)cc1` , please?
a: -65.7
